Reported pIC50 by item:
# study-target: Vascular endothelial growth factor receptor 2 (Homo sapiens, UniProt P35968)
# Sequence (P35968 whole entry): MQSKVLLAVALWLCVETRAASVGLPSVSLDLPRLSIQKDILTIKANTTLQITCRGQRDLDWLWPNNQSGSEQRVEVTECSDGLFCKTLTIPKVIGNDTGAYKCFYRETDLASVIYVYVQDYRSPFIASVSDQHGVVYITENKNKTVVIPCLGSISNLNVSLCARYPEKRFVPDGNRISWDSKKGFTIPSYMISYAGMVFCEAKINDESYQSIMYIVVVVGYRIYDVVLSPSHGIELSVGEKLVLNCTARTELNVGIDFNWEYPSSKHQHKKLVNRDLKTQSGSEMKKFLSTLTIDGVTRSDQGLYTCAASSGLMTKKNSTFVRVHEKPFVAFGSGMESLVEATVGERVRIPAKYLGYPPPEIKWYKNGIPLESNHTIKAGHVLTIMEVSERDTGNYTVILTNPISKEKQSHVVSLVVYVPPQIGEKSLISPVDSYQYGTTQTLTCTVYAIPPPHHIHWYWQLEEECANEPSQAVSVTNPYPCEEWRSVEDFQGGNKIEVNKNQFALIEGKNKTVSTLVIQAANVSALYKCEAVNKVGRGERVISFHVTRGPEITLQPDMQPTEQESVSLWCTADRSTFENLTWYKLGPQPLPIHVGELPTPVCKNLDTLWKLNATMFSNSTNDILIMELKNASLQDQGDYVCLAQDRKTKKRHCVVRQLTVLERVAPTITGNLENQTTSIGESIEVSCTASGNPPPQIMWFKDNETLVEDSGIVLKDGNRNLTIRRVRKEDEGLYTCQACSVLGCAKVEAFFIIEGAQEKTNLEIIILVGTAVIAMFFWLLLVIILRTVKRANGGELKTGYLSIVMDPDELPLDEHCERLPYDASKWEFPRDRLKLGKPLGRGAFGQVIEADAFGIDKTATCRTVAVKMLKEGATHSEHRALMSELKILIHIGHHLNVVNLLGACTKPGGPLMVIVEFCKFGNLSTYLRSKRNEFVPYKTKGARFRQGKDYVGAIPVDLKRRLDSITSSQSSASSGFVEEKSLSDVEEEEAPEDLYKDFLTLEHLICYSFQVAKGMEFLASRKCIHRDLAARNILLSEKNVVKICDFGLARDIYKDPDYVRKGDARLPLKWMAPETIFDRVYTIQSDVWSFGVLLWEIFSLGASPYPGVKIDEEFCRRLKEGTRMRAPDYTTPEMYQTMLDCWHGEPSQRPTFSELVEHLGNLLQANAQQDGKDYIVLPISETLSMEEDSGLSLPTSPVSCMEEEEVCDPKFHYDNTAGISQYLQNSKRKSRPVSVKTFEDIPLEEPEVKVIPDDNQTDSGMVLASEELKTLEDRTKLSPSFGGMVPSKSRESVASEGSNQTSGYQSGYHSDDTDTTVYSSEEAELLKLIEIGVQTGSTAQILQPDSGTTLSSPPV
pIC50: −log10 of the molar value.
measured-property: pIC50

- compound-string: "COc1ccc(-c2cc3cc(OC)ccc3nc2Nc2ccc(NC(=O)CN(C)C)cc2)cc1"
  obs-value: 6.96
- compound-string: "COc1ccc(-c2cc3ccc(OC)cc3nc2Nc2ccc(NC(=O)CN3CCN(C)CC3)cc2)cc1"
  obs-value: 6.98
- compound-string: "COc1ccc(-c2cc3ccc(OC)cc3nc2Nc2ccc(NC(=O)CN3CCCCC3)cc2)cc1"
  obs-value: 7.10
- compound-string: "COc1ccc(-c2cc3ccc(OC)cc3nc2Nc2ccc(NC(=O)CN(C)C)cc2)cc1"
  obs-value: 6.94
- compound-string: "CCN(CC)CC(=O)Nc1ccc(Nc2nc3ccc(OC)cc3cc2-c2ccc(OC)cc2)cc1"
  obs-value: 7.09
- compound-string: "COc1ccc(-c2cc3cc(OC)ccc3nc2Nc2ccc(NC(=O)CN3CCCCC3)cc2)cc1"
  obs-value: 7.10
